ASSAY_TEXT: amyloid nucleation score (Sup35N fusion, yeast selection) (log enrichment); library NNK1; higher = more nucleation; inactive = no reads after selection;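 note: zero at mode of non-aggregating sequences after 7 days selection at 30°C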
Is amyloid nucleation score at least 0.8? Then Met. If not, Not met.

biopolymer_sequence=VQEFYDLKEYWS assigned_label="Not met"
biopolymer_sequence=IRSEDKITFPGLCKSRLELV assigned_label=Met
biopolymer_sequence=VSSRITPS assigned_label=Met
biopolymer_sequence=LGPDSLHLFGMVGSGRLNIL assigned_label="Not met"
biopolymer_sequence=TGYLIYSSWC assigned_label="Not met"
biopolymer_sequence=NGRTLINQYESLEATGICTV assigned_label="Not met"
biopolymer_sequence=ISEKRISMCGIRNKYIWGHG assigned_label="Not met"
biopolymer_sequence=PMSGVGYGRMRLSAAWPVDK assigned_label="Not met"
biopolymer_sequence=DTECRGMKVELHRTHRMGKF assigned_label="Not met"
biopolymer_sequence=YCVQFVRLMLKKNGRGYNYR assigned_label="Not met"
biopolymer_sequence=KDIEYCASMCESCPYMT assigned_label=Met
biopolymer_sequence=RLRLIFTCMR assigned_label=Met
biopolymer_sequence=IAMSIKWRRW assigned_label=Met
biopolymer_sequence=AYNDSAVGRAGGLFVVGLFV assigned_label="Not met"
biopolymer_sequence=RYCVGLVRICLKLGVREICS assigned_label=Met
biopolymer_sequence=IVIFPFFLVISDLYVVVSLG assigned_label="Not met"

====

ASSAY_TEXT: amyloid nucleation score (Sup35N fusion, yeast selection) (log enrichment); library NNK1; higher = more nucleation; inactive = no reads after selection
MEASUREMENT_KIND: amyloid nucleation score

substance=TKSTLL measurement_kind="amyloid nucleation score" number=-0.296
substance=DYYVVLDMQQVFEGGCRFFR measurement_kind="amyloid nucleation score" number=0.498
substance=DKISWLSHQLRWDSRMSNLE measurement_kind="amyloid nucleation score" number=1.1
substance=DVSLNVNLYVHRFMCHQVPI measurement_kind="amyloid nucleation score" number=0.515
substance=VPIFVNKFVDYTSLSCMHCL measurement_kind="amyloid nucleation score" number=7.38
substance=GTYRRQKMELMYSSLGLFGC measurement_kind="amyloid nucleation score" number=-0.634
substance=IPNSRLLNI measurement_kind="amyloid nucleation score" number=0.996
substance=HVIQKSN measurement_kind="amyloid nucleation score" number=-0.988

====

ASSAY_TEXT: amyloid nucleation score (Sup35N fusion, yeast selection) (log enrichment); library NNK2; higher = more nucleation; inactive = no reads after selection
Is amyloid nucleation score at least -0.3? Then met. If not, not met.

substance=YAIGDNAA assigned_label=met
substance=ETRRSYV assigned_label=met
substance=TRSPCGRCDSEFLNASLAGL assigned_label=met
substance=QYSYGWHLRTIRIRRTCTGS assigned_label=met
substance=LSWWIHVTVWFPFQVKTGYL assigned_label="not met"
substance=CFFPDSVTTELKKIKTL assigned_label="not met"
substance=VWLYKSLIINFDSKWRLS assigned_label=met
substance=TYRSEYCICLLLSAFFQMKG assigned_label="not met"
substance=MFHCSSKACLPVVDVGVVVC assigned_label=met
substance=STRNSFPSDKAYLS assigned_label="not met"
substance=DKKLIFRWAITVMIRIPART assigned_label=met
substance=CGLWASNSSTFRDFESNESN assigned_label="not met"
substance=NVDRRQGETWSNPYDLMRRL assigned_label=met
substance=LLSIYVSSWKLRGSAPG assigned_label="not met"
substance=SNSLQFYDLKSCDWGVWRCE assigned_label=met
substance=WMKFTWWRHEYYVVS assigned_label=met
substance=LNMMFYYLRFRMHFRWMDC assigned_label="not met"
substance=YQNVVCRDIQIGFWNLADSI assigned_label=met
substance=PLLFIMANFCLVVLHVSFYN assigned_label="not met"
substance=RSTQLNSGPTANK assigned_label=met
substance=LYHPACSAFSRSFCVKFLYW assigned_label="not met"
substance=FLINFAMIISIFRLSYHRPV assigned_label="not met"
substance=VSDNGFFNRYNMTNCRIHGV assigned_label=met
substance=LLKLCRRIKDATFDSLPGCA assigned_label=met
substance=DYGEGLPNSMCCLVSFQ assigned_label=met
substance=FLCYKISSFVSICKQQEAHA assigned_label=met
substance=WVWGIGSFRRSFQCWWWFSN assigned_label="not met"
substance=VGCCVQGNLYSSFLAMFVA assigned_label=met
substance=TYVDTVFSGSGCYLLYKGWI assigned_label=met
substance=KLNNVRLGGERFDLRTLGLR assigned_label=met
substance=IRDRPHWAGGHLGWPYMWS assigned_label=met
substance=DWLNSVFFLPFKCGLCVLRA assigned_label=met
substance=STSGVKAVQISLSSVPWRWD assigned_label=met
substance=YYNSCKVN assigned_label="not met"
substance=TFEYCSLYVGCNQGNLVITT assigned_label=met
substance=SSMLPYSRHTIRVTKVRPPF assigned_label=met
substance=MNLAVGWSHSPDQDLYYPML assigned_label="not met"
substance=IFDIWTSIAVRDLLLNGRSW assigned_label=met
substance=YTNTKKVLLVSVNVPRFLPV assigned_label=met
substance=VWELDRVVR assigned_label=met
substance=AVFVPNSNALVLTVLT assigned_label=met
substance=FTCDSSLYAES assigned_label="not met"
substance=GLGYLMINYMRISWWAMYCA assigned_label=met
substance=GDGHLVILLSHFTPWSLNTG assigned_label=met
substance=WLLILLDISTSDFLQCWIGM assigned_label=met
substance=AWFMCSFECVTRSVKHALR assigned_label=met
substance=VNTTDKWKVSEYKYQND assigned_label=met
substance=DNSHWI assigned_label=met
substance=SNFLVYS assigned_label="not met"
substance=PLCLSDNYMTIQSSSILNAH assigned_label=met
substance=QILNGSAY assigned_label="not met"
substance=LNQSDLLADFLVLI assigned_label=met
substance=WIKLAFDWKQF assigned_label="not met"
substance=GSAGNYRRY assigned_label=met
substance=VLHCHWTGFSRSTCVHLVHF assigned_label=met
substance=SPFRTDHVF assigned_label="not met"
substance=SCLLVEQLP assigned_label=met
substance=SKLIVWLTDLASSVSRMLLV assigned_label=met
substance=TMYLFGYEV assigned_label=met
substance=KCMQLAAFTRLLWTGPSARG assigned_label=met
substance=STVTVGHNSHVCAFIF assigned_label="not met"
substance=TSSLDEEALS assigned_label="not met"
substance=KCVLLWWVIKYVCVDTDAAV assigned_label=met
substance=SHYTMALSRDIGYGDITKSD assigned_label="not met"
substance=LVRMIIVYTCRW assigned_label=met
substance=NKATNKTDRVMKPSAKKDTE assigned_label="not met"
substance=SVTCSSRCVSQRRFLVGPWN assigned_label="not met"
